tested on: Escherichia coli TOP10; assay: shrunken log2 fold change of peptide-encoding DNA abundance (4.5 h post-induction vs induction); higher = less antimicrobial activity (less host growth inhibition); conditions: time post-induction: 4.5 h; library: site-saturation at positions 5, 18, 19, 20
Lab note: compare shrunken log2 fold change against -0.005. Equal or greater, write True. Smaller, write False.

RRIRPRPPRLPRPRPRPEKKPRP = False

Q: Could you please find out whether RRIRRRPPRLPRPRPRPHMWPRP has shrunken log2 fold change that meets -0.005 or exceeds it?
A: False

Q: Could you please find out whether RRIRNRPPRLPRPRPRPFLVPRP has shrunken log2 fold change that meets -0.005 or exceeds it?
A: False

Q: Could you please find out whether RRIRNRPPRLPRPRPRPTNSPRP has shrunken log2 fold change that meets -0.005 or exceeds it?
A: False

Q: Could you please find out whether RRIRLRPPRLPRPRPRPNDHPRP has shrunken log2 fold change that meets -0.005 or exceeds it?
A: False

Q: Could you please find out whether RRIRERPPRLPRPRPRPNCVPRP has shrunken log2 fold change that meets -0.005 or exceeds it?
A: False

* * *

tested on: Escherichia coli TOP10; assay: shrunken log2 fold change of peptide-encoding DNA abundance (4.5 h post-induction vs induction); higher = less antimicrobial activity (less host growth inhibition); conditions: time post-induction: 4.5 h; library: site-saturation at positions 5, 18, 19, 20
Lab note: compare shrunken log2 fold change against -0.01. Equal or greater, write yes (1). Smaller, write no (0).

Q: Could you please find out whether RRIRKRPPRLPRPRPRPEAMPRP has shrunken log2 fold change that meets -0.01 or exceeds it?
A: yes (1)

Q: Could you please find out whether RRIRIRPPRLPRPRPRPEHFPRP has shrunken log2 fold change that meets -0.01 or exceeds it?
A: no (0)

Q: Could you please find out whether RRIRVRPPRLPRPRPRPCSYPRP has shrunken log2 fold change that meets -0.01 or exceeds it?
A: no (0)

Q: Could you please find out whether RRIRDRPPRLPRPRPRPGFQPRP has shrunken log2 fold change that meets -0.01 or exceeds it?
A: yes (1)

Q: Could you please find out whether RRIRLRPPRLPRPRPRPVYFPRP has shrunken log2 fold change that meets -0.01 or exceeds it?
A: no (0)

Q: Could you please find out whether RRIRNRPPRLPRPRPRPNRFPRP has shrunken log2 fold change that meets -0.01 or exceeds it?
A: yes (1)

Q: Could you please find out whether RRIRIRPPRLPRPRPRPPWEPRP has shrunken log2 fold change that meets -0.01 or exceeds it?
A: no (0)

Q: Could you please find out whether RRIRFRPPRLPRPRPRPQAMPRP has shrunken log2 fold change that meets -0.01 or exceeds it?
A: yes (1)

Q: Could you please find out whether RRIRMRPPRLPRPRPRPVTIPRP has shrunken log2 fold change that meets -0.01 or exceeds it?
A: no (0)

* * *

test system: Escherichia coli TOP10; assay: shrunken log2 fold change of peptide-encoding DNA abundance (4.5 h post-induction vs induction); higher = less antimicrobial activity (less host growth inhibition); conditions: time post-induction: 4.5 h; library: site-saturation at positions 5, 18, 19, 20;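 further: peptides expressed intracellularly from a pBAD plasmid library in pooled LB shake-flask culture, induced with 0.3% L-arabinose, DNA abundance read by NGS, three biological replicates, DESeq2 with apeglm shrinkage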
Lab note: compare shrunken log2 fold change against -0.06. Equal or greater, write label 1. Smaller, write label 0.

Recorded results for 4 sequences are shown here.
RRIRLRPPRLPRPRPRPENQPRP = label 0
RRIRVRPPRLPRPRPRPVSTPRP = label 0
RRIRGRPPRLPRPRPRPMMIPRP = label 1
RRIRARPPRLPRPRPRPCHFPRP = label 1

Q: Could you please find out whether RRIRKRPPRLPRPRPRPDWTPRP has shrunken log2 fold change that meets -0.06 or exceeds it?
A: label 1

Q: Could you please find out whether RRIRFRPPRLPRPRPRPISQPRP has shrunken log2 fold change that meets -0.06 or exceeds it?
A: label 0

Q: Could you please find out whether RRIRCRPPRLPRPRPRPVGWPRP has shrunken log2 fold change that meets -0.06 or exceeds it?
A: label 1

Q: Could you please find out whether RRIRWRPPRLPRPRPRPDVPPRP has shrunken log2 fold change that meets -0.06 or exceeds it?
A: label 0

Q: Could you please find out whether RRIRDRPPRLPRPRPRPMTRPRP has shrunken log2 fold change that meets -0.06 or exceeds it?
A: label 0

Q: Could you please find out whether RRIRGRPPRLPRPRPRPEPHPRP has shrunken log2 fold change that meets -0.06 or exceeds it?
A: label 1

Q: Could you please find out whether RRIRHRPPRLPRPRPRPDHSPRP has shrunken log2 fold change that meets -0.06 or exceeds it?
A: label 1

Q: Could you please find out whether RRIRVRPPRLPRPRPRPFMMPRP has shrunken log2 fold change that meets -0.06 or exceeds it?
A: label 1

Q: Could you please find out whether RRIRLRPPRLPRPRPRPIISPRP has shrunken log2 fold change that meets -0.06 or exceeds it?
A: label 0

Q: Could you please find out whether RRIRGRPPRLPRPRPRPRPHPRP has shrunken log2 fold change that meets -0.06 or exceeds it?
A: label 1
